EC50 listing for selected compounds.
method_description: Cytotoxic activity of compound was evaluated against drug resistant subline KB-7d cells
Assay type: functional
experimental_context: Homo sapiens; read-out: ED50 (the source's name)

{"columns": ["compound", "relation_qualifier", "EC50 (µg/mL)"],
 "data": [
  ["C=C1[C@@H](OC(=O)/C=C/c2ccccc2)C[C@H](OC(C)=O)[C@]2(C)[C@@H]1C[C@@H]1C[C@H](OC(C)=O)C(C)=C([C@@H](OC(C)=O)[C@@H]2OC(C)=O)C1(C)C", "=", 3.5],
  ["CC(=O)O[C@H]1C[C@H]2[C@@H](OC(C)=O)/C=C3\\C[C@@](C)([C@@H](OC(C)=O)C[C@@H]3OC(C)=O)[C@@H](O)C(=O)C(=C1C)C2(C)C", ">", 28],
  ["C=C1[C@@H](OC(=O)/C=C/c2ccccc2)C[C@H](OC(C)=O)[C@@]2(C)[C@@H](OC(C)=O)[C@H](OC(C)=O)C3=C(C)[C@@H](OC(C)=O)C[C@@H]([C@@H](OC(C)=O)[C@H]12)C3(C)C", "=", 14.2],
  ["C=C1[C@@H](OC(=O)/C=C/c2ccccc2)CC[C@@]2(C)[C@@H](O)[C@H](OC(C)=O)[C@@]34[C@H](C)C(=O)C[C@@H]([C@@H](OC(C)=O)C132)C4(C)C (some centres not stated)", "=", 6.1],
  ["CC(=O)O[C@H]1C(=O)[C@@]2(C)C/C(=C\\[C@H](OC(C)=O)[C@@H]3C[C@H](OC(C)=O)C(C)=C1C3(C)C)[C@@H](OC(C)=O)C[C@@H]2OC(C)=O", ">", 20],
  ["C=C1[C@@H](OC(C)=O)CC[C@@]2(C)C[C@H](OC(C)=O)C3=C(C)C[C@H](OC(=O)[C@@H](C)C(C)O)[C@@H]([C@@H](OC(C)=O)[C@H]12)C3(C)C (some centres not stated)", "=", 4.3],
  ["C=C1[C@@H](OC(=O)/C=C/c2ccccc2)C[C@H](OC(C)=O)[C@@]2(C)[C@@H](OC(C)=O)[C@H](OC(C)=O)C3=C(C)C(=O)C[C@@H]([C@@H](OC(C)=O)[C@H]12)C3(C)C", "=", 4.1]
]}

Source listed as ChEMBL document CHEMBL1135356.
